# assay.target: KRAS G12D (Homo sapiens, UniProt P01116, G12D)
# Construct: AsPc-1-KRAS (G12D)-HiBit-KI cell (Pharmaron); host or cells: AsPc-1-KRAS (G12D)-HiBit-KI cells (HiBiT knock-in at the endogenous KRAS locus)
# Sequence (P01116 1-188 isoform P01116-2 G12D): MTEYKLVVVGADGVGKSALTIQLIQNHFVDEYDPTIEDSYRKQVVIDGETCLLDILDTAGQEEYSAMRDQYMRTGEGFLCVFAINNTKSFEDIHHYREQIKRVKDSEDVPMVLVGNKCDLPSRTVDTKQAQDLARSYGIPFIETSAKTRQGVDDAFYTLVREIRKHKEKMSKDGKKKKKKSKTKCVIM
# protocol.details: KRAS G12D HiBit assay
# Format: cell-based
# reported.conditions: AsPc-1-KRAS (G12D)-HiBit-KI cell, compound treatment for 24 hours, absolute DC50; numeric bounds given in place of class symbols
Please respond with reported DC50 for every item in the list.

Documented DC50 of Cn1c(=O)n(C2CCC(=O)NC2=O)c2cc(C3CCN(CC4CCN(C(=O)CN5CCN(c6nccc(-c7noc([C@@]8(C)CCCc9sc(N)c(C#N)c98)n7)n6)CC5)CC4)CC3)ccc21 (some centres unmarked) : > 231 nM

Documented DC50 of C#Cc1c(F)ccc2cccc(-c3ncc4c(N5CCC[C@@](C)(O)C5)nc(OC[C@@]56CCCN5[C@@H](COC(=O)N5CCC(CN7CCC(c8ccc9c(c8)n(C)c(=O)n9C8CCC(=O)NC8=O)CC7)CC5)CC6)nc4c3F)c12 (some centres unmarked) : > 100 nM

* * *

# assay.target: KRAS (Homo sapiens, UniProt P01116)
# Construct: endogenous in cells; host or cells: KE39 (KRAS amplified) cells
# Sequence (P01116 1-188 isoform P01116-2): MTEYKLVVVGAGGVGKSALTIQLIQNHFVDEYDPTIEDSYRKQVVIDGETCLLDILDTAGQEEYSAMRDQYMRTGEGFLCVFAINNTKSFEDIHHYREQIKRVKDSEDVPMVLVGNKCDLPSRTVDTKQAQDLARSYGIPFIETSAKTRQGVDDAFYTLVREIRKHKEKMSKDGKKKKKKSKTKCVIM
# protocol.details: KRASamp MSD assay
# Assay type: cell-based
# reported.conditions: KE39 (KRAS amplified) cells, treated with test compounds for 24 hr, MSD readout of KRAS degradation
Please respond with reported DC50 for every item in the list.

Documented DC50 of CCc1c(F)ccc2cc(O)cc(-c3ncc4c(N5CCC[C@@](C)(O)C5)nc(OC[C@@]56CCCN5[C@H](COC(=O)N5CC7(CCC(N8CCC(c9ccc%10c(c9)n(C)c(=O)n%10C9CCC(=O)NC9=O)CC8)CC7)C5)CC6)nc4c3F)c12 (stereo partly shown) : < 1 nM

Documented DC50 of C#Cc1c(F)ccc2cc(O)cc(-c3ncc4c(N5CCC[C@@](C)(O)C5)nc(OCC5(CN6CCN(CC7CCN(c8ccc9c(c8)C(=O)N(C8CCC(=O)NC8=O)C9=O)CC7)CC6)CC5)nc4c3F)c12 (stereo partly shown) : 1 to 10 nM

Documented DC50 of CCc1c(F)ccc2cc(O)cc(-c3ncc4c(N5CCC(F)(F)CC5)nc(OC[C@@]56CCCN5[C@H](COC(=O)N5CCC7(CC5)CC(N5CCC(c8ccc9c(c8)n(C)c(=O)n9C8CCC(=O)NC8=O)CC5)C7)CC6)nc4c3F)c12 (stereo partly shown) : 1 to 10 nM

Documented DC50 of CCc1c(F)ccc2cc(O)cc(-c3ccc4c(N5CCC[C@@](C)(O)C5)nc(OC[C@@]56CCCN5[C@H](COC(=O)N5CCC7(CC5)CC(N5CCC(c8ccc9c(c8)n(C)c(=O)n9C8CCC(=O)NC8=O)CC5)C7)CC6)nc4c3F)c12 (stereo partly shown) : < 1 nM

* * *

Please respond with reported DC50 for every item in the list.
# assay.target: KRAS G12V (Homo sapiens, UniProt P01116, G12V)
# Construct: SW620-KRAS (G12V)-HiBit-KI cell (Pharmaron); host or cells: SW620-KRAS (G12V)-HiBit-KI cells (HiBiT knock-in at the endogenous KRAS locus)
# Sequence (P01116 1-188 isoform P01116-2 G12V): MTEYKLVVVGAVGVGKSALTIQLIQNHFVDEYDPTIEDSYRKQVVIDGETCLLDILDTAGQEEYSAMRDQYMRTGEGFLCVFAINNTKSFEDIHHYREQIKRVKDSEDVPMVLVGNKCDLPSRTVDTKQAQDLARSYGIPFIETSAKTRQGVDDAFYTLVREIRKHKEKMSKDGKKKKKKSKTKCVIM
# protocol.details: KRAS G12V HiBit assay
# Type: cell-based
# reported.conditions: SW620-KRAS (G12V)-HiBit-KI cells, compound treatment for 24 hours, class symbols

Documented DC50 of CCc1c(F)ccc2cc(O)cc(-c3ncc4c(N5CCC[C@@](C)(O)C5)nc(OC[C@@]56CCCN5[C@H](COC(=O)N5CCC(CN7CCC(c8ccc9c(c8)n(C)c(=O)n9C8CCC(=O)NC8=O)C(F)(F)C7)CC5)CC6)nc4c3F)c12 (stereo partly shown) : < 10 nM

Documented DC50 of CCc1c(F)ccc2cc(O)cc(-c3ncc4c(N5CCCC(F)(F)C5)nc(OC[C@@]56CCCN5[C@H](COC(=O)N5CC7(CC(N8CCC(c9ccc%10c(c9)n(C)c(=O)n%10C9CCC(=O)NC9=O)CC8)C7)C5)CC6)nc4c3F)c12 (stereo partly shown) : < 10 nM

Documented DC50 of CCc1c(F)ccc2cc(O)cc(-c3ncc4c(N5CCC[C@@](C)(O)C5)nc(OC[C@@]56CCCN5[C@H](COC(=O)N5CCC7(CC5)CC(N5CCC(c8ccc9c(c8)n(C)c(=O)n9C8CCC(=O)N(C)C8=O)CC5)C7)CC6)nc4c3F)c12 (stereo partly shown) : > 100 nM

Documented DC50 of CCc1c(F)ccc2cc(O)cc(-c3ncc4c(N5CCC[C@@](C)(O)C5)nc(OC[C@@]56CCCN5[C@H](COC(=O)N5C7CCC5CC(CN5CCC(c8ccc9c(c8)n(C)c(=O)n9C8CCC(=O)NC8=O)CC5)C7)CC6)nc4c3F)c12 (stereo partly shown) : < 10 nM
